Measured pEC50 by item
# system tested: β1-adrenoreceptor (Homo sapiens, UniProt P08588)
# Sequence (P08588 whole entry, species assumed): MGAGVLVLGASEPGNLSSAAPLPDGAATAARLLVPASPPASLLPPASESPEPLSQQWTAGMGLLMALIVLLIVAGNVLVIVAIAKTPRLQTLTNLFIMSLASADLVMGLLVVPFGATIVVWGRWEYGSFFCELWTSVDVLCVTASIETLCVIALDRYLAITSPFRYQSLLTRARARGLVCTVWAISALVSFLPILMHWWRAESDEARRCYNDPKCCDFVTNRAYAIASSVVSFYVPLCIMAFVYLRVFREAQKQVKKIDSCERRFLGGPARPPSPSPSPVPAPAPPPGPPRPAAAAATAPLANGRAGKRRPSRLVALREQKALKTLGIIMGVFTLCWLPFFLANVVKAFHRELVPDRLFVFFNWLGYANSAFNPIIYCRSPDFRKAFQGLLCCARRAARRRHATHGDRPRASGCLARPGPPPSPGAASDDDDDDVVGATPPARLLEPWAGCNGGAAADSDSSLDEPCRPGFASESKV
# test protocol: cAMP determination in cells expressing β1-adrenoreceptor
# Type: cell-based
# measurement setup: cells expressing β1-adrenoreceptor; read-out: EC50 (β1), binding potency measured by cAMP determination
pEC50: −log10 of the molar value. Structures can show the parent of a compound that is named as a salt.
assay metric: pEC50

compound: O=c1ccc2c([C@@H](O)CNC3Cc4cc5c(cc4C3)OCCO5)ccc(O)c2[nH]1 [Example 6]
system tested: β1-adrenoreceptor (Homo sapiens, UniProt P08588)
endpoint result: 8.44
//
compound: CCc1ccc(CC)c2c1CC(NC[C@H](O)c1ccc(O)c3[nH]c(=O)ccc13)C2 [Example 4]
system tested: β1-adrenoreceptor (Homo sapiens, UniProt P08588)
endpoint result: 7.84
//
compound: COc1ccc(OC)c2c1CC(NC[C@H](O)c1ccc(O)c3[nH]c(=O)ccc13)C2 [Example 1, hydrochloride]
system tested: β1-adrenoreceptor (Homo sapiens, UniProt P08588)
endpoint result: 8.02
//
compound: O=c1ccc2c([C@@H](O)CNC3Cc4cc5c(cc4C3)CCCC5)ccc(O)c2[nH]1 [Example 5]
system tested: β1-adrenoreceptor (Homo sapiens, UniProt P08588)
endpoint result: 8.21
//
compound: CCCc1cc2c(cc1CCC)CC(NC[C@H](O)c1ccc(O)c3[nH]c(=O)ccc13)C2 [Example 8]
system tested: β1-adrenoreceptor (Homo sapiens, UniProt P08588)
endpoint result: 8.07
//
compound: CC1(NC[C@H](O)c2ccc(O)c3[nH]c(=O)ccc23)Cc2ccccc2C1 [Example 27]
system tested: β1-adrenoreceptor (Homo sapiens, UniProt P08588)
endpoint result: 9.30
